Kindly state half-life for each of the entries shown.
assay: Half life in mouse liver microsomes; assay type: ADME, Microsome
One number for each entry, in h.

Cn1nnnc1S(=O)(=O)CC(=O)N1CCCCC1; 2.93

### Prompt Please look at this compound and report its half-life: `Cn1nnnc1S(=O)(=O)CC(=O)N1CCN(c2ccccc2)CC1`
### Response 0.333

###

assay: Lipophilicity, log D of the compound at pH 7.4; assay type: physicochemical; settings: buffer
endpoint-label: logD
Give bare numbers.

Cn1nnnc1S(=O)(=O)CC(=O)N1CCCCC1; 1.6

### Prompt Please look at this compound and report its logD: `Cn1nnnc1S(=O)(=O)CC(=O)N1CCN(c2ccccc2)CC1`
### Response 4.8
